Molecular target: WIZ protein (HiBit-WIZ fusion protein) (Homo sapiens, UniProt O95785+Q96SW2)
Construct: expressed in transfected cells
Sequence (O95785 whole entry, the tested form may be a part): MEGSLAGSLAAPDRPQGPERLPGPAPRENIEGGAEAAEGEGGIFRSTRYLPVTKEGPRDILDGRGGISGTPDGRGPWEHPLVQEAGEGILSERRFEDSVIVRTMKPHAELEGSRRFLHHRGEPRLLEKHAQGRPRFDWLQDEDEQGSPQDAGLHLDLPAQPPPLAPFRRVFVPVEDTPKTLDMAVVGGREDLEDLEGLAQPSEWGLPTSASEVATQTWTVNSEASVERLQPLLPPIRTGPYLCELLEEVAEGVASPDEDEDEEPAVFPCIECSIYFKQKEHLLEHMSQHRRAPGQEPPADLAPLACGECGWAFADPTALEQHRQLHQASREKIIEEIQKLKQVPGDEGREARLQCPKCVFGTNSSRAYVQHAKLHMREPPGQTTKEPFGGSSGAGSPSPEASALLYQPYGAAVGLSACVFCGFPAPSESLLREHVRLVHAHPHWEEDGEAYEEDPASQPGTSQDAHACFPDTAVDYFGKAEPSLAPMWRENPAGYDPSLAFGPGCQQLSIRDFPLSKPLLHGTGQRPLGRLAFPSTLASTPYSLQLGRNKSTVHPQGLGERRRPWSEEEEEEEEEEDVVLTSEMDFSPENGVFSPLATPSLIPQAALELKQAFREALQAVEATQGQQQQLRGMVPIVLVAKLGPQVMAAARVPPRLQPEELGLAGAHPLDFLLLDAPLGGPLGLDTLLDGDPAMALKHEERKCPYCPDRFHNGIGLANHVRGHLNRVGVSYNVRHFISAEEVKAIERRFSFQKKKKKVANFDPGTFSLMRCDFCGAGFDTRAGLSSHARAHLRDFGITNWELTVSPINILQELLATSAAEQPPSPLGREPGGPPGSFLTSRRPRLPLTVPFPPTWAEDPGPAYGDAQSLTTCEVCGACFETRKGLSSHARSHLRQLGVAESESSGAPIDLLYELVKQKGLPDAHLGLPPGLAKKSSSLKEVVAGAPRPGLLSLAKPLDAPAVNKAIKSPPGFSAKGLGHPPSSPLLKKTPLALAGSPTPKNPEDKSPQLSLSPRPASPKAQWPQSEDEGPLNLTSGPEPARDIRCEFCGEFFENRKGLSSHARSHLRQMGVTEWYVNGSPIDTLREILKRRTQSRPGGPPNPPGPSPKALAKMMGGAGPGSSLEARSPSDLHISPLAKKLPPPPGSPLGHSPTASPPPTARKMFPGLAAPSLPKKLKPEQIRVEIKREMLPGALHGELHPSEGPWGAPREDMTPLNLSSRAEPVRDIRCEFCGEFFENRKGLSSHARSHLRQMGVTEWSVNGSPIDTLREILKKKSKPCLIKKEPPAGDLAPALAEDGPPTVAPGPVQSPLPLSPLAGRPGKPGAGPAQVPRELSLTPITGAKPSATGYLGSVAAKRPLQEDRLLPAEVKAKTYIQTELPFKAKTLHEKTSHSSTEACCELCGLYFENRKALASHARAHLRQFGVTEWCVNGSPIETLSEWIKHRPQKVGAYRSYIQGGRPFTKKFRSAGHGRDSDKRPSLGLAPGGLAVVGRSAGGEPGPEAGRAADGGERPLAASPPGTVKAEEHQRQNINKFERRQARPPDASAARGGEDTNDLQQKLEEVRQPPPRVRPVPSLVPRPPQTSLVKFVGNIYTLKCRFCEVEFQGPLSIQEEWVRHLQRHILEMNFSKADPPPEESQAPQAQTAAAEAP
Sequence (Q96SW2 whole entry, the tested form may be a part): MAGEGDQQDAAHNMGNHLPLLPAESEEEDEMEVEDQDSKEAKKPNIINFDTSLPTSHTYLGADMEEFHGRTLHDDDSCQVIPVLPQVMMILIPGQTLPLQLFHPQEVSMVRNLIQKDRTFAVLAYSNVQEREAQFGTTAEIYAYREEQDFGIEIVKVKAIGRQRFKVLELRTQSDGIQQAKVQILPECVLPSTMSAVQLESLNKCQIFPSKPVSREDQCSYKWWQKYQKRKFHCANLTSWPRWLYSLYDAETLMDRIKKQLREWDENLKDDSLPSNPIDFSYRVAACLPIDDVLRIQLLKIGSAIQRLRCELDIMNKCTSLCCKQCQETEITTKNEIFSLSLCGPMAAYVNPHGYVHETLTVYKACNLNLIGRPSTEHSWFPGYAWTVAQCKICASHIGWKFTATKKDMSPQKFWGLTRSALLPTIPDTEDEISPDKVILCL
Sequence (Q16531 whole entry partner, the tested form may be a part): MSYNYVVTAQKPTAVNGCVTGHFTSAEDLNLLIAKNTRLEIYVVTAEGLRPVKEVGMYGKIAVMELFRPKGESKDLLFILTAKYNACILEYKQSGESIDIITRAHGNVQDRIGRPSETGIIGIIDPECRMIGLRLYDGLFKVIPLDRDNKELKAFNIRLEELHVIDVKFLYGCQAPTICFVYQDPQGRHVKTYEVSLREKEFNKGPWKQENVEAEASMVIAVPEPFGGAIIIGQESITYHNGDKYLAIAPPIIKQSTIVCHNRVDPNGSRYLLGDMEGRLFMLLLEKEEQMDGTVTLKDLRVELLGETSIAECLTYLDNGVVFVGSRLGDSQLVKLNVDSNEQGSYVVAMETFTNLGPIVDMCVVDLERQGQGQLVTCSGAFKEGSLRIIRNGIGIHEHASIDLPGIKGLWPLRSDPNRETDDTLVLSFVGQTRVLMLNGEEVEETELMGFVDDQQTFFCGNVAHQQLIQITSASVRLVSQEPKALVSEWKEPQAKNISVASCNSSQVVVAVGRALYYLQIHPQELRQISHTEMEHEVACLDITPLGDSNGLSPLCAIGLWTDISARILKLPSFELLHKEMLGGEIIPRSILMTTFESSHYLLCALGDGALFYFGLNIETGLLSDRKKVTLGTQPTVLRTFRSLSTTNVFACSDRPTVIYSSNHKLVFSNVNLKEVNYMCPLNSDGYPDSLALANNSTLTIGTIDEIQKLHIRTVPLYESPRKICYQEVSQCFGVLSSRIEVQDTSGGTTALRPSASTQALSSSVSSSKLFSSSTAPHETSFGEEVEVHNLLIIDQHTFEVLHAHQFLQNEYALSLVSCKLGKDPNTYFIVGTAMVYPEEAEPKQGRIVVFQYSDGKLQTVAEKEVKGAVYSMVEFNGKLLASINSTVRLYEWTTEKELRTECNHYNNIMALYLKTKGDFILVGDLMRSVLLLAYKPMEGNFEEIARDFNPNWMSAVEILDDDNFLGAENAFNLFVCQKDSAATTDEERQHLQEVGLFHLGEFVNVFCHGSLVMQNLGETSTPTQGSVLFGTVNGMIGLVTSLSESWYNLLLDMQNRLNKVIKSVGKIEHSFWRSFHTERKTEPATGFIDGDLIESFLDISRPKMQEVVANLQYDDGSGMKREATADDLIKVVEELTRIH
Assay: Quantification of WIZ protein levels in HiBit tag fusion protein assay (WIZ HiBit assay in 293T cells)
Type: cell-based
Conditions: HEK-293T, 100 − Amax, at 25 uM; 293T cells; read-out: % degradation of WIZ (100 − Amax)

[
  {
    "COMPOUND": "CCCN1CCN(Cc2ccn3ncc(N4CCC(=O)NC4=O)c3c2)CC1 [Example 163]",
    "Dmax at 25 µM / %": 76
  },
  {
    "COMPOUND": "Cc1ccc(CN2CCC(Cc3ccn4ncc(N5CCC(=O)NC5=O)c4c3)CC2)cc1 [Example 47]",
    "Dmax at 25 µM / %": 69
  },
  {
    "COMPOUND": "COCCS(=O)(=O)N1CCC(Cc2ccn3ncc(N4CCC(=O)NC4=O)c3c2)CC1 [Example 92]",
    "Dmax at 25 µM / %": 69
  },
  {
    "COMPOUND": "O=C1CCN(c2cnn3ccc(CC4CCN(Cc5ccncc5)CC4)cc23)C(=O)N1 [Example 28]",
    "Dmax at 25 µM / %": 75
  },
  {
    "COMPOUND": "O=C1CCN(c2cnn3ccc(CN4CCN(CC56CC7CC(CC(C7)C5)C6)CC4)cc23)C(=O)N1 [Example 194]",
    "Dmax at 25 µM / %": 89
  },
  {
    "COMPOUND": "O=C1CCN(c2cnn3ccc(CC4CCN(Cc5ccc(F)cc5F)CC4)cc23)C(=O)N1 [Example 50]",
    "Dmax at 25 µM / %": 66
  },
  {
    "COMPOUND": "CC(C)(CN1CCC(Cc2ccn3ncc(N4CCC(=O)NC4=O)c3c2)CC1)C(F)(F)F [Example 62]",
    "Dmax at 25 µM / %": 73
  },
  {
    "COMPOUND": "CC(C)N1CCC(Cc2ccn3ncc(N4CCC(=O)NC4=O)c3c2)CC1 [Example 37]",
    "Dmax at 25 µM / %": 72
  },
  {
    "COMPOUND": "CO[C@H]1CC[C@@H](CN2CCC(Cc3ccn4ncc(N5CCC(=O)NC5=O)c4c3)CC2)CC1 [Example 65]",
    "Dmax at 25 µM / %": 94
  }
]

FYI, the data here is from patent US11787785B2.
